molecular target: BLM-dH (Homo sapiens, UniProt P54132 642-1191); assay: competition fluorescence anisotropy; vs ss54-FLU; 5 mM MgCl2; 50 mM Tris-HCl pH 7.5, 50 mM NaCl, 1 mM DTT, 5 mM MgCl2, 50 µg/mL BSA, 25 °C; 10 nM labeled DNA in direct titrations; conditions: protein: recombinant; label: 5'-Cy3 on D3; 20 bp duplex, 3' overhang 21 nt on D3
Sequence (P54132 642-1191): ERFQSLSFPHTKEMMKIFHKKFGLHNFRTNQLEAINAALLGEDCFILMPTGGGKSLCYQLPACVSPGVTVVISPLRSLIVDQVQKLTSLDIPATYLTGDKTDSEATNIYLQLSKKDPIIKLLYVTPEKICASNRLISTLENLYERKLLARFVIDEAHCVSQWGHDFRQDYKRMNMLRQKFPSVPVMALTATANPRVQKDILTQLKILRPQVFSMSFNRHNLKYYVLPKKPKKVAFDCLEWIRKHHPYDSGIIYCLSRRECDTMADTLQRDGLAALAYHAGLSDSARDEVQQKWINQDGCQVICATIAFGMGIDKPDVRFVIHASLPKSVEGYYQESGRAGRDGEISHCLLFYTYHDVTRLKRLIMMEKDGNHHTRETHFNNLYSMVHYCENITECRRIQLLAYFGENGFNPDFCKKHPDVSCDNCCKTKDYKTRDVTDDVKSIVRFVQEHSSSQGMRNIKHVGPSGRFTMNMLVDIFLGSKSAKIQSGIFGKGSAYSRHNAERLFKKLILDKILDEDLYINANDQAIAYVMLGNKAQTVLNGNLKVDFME
RECORDED_METRIC: pKd
One number for each entry, as −log10 of the molar value.

// query Report pKd for 3T (Cy3) (dsDNA) DNA 1: TAAGAGCAAGATGTTCTATAAAAGATGTCCTAGCAAGGCAC DNA 2: TATAGAACATCTTGCTCTTA
// result 7.41
